Measured target: human complement protein C3 (human) (UniProt P01024)
Sequence (P01024 23-667, chain 1 of 2): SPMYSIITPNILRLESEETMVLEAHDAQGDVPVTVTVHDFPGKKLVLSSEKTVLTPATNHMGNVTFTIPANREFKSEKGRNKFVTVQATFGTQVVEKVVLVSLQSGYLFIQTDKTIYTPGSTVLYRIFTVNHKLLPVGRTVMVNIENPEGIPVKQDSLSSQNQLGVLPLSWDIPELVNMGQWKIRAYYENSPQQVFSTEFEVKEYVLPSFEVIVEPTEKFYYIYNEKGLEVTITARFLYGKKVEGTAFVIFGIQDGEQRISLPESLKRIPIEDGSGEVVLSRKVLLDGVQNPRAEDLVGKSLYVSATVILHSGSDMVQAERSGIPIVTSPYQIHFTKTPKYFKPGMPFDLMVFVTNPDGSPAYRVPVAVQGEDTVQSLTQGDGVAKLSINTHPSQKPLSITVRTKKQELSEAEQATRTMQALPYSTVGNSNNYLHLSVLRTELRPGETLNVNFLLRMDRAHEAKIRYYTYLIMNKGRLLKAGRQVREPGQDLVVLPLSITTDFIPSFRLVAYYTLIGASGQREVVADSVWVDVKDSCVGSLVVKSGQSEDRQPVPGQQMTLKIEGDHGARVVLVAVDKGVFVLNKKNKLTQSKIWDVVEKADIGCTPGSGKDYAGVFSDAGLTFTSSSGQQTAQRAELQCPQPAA
Sequence (P01024 672-1663, chain 2 of 2): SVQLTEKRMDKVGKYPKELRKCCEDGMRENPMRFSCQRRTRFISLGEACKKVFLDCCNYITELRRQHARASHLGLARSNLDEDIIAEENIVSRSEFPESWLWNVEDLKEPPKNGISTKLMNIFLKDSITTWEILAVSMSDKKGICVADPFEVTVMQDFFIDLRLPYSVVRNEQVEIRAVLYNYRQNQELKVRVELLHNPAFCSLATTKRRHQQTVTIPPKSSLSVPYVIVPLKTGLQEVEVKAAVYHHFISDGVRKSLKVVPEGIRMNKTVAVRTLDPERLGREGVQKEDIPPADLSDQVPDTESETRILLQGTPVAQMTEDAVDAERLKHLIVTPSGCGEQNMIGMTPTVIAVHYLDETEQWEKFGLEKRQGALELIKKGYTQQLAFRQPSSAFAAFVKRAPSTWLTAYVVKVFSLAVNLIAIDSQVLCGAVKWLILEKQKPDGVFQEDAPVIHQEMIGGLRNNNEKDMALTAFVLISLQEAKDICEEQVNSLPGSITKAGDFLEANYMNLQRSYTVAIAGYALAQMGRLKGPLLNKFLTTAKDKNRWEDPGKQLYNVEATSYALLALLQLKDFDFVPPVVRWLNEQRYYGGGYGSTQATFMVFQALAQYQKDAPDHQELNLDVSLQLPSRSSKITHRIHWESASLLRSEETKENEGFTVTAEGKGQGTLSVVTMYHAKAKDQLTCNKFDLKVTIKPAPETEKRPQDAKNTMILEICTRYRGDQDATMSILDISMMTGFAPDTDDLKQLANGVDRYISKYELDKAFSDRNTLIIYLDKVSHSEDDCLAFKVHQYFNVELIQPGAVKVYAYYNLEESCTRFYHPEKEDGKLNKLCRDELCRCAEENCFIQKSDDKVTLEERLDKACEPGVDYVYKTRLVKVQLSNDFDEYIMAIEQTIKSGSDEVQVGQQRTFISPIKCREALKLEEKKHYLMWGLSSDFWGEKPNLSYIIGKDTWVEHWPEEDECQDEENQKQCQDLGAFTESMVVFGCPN
Assay details: cell-based or functional assay
Measured EC50 (nM), cleavage of purified hC3 in vitro by item
// return numeric value only (unit: nM, not printed)

Examples from the recorded data:
[
  {
    "Binder": "Q38H/I41S/D60bT/F60eS/Y60gW/D96K/F97G/ins97aV/T98P/F99L/C122S/G151H/Q175L (enzyme) VVGGTDADEGEWPWQVSLHALGHGHSCGASLISPNWLVSAAHCYIDTRGSRWSDPTQWTAFLGLHDQSQRSAPGVQERRLKRIISHPFFNKGVPLDYDIALLELEKPAEYSSMVRPISLPDASHVFPAGKAIWVTGWGHTQYGGTHALILQKGEIRVINQTTCENLLPQLITPRMMCVGFLSGGVDSCQGDSGGPLSSVEADGRIFQAGVVSWGDGCAQRNKPGVYTRLPLFRDWIKENTGV",
    "Observed": 1.45
  },
  {
    "Binder": "Q38H/I41S/D60bT/F60eS/Y60gW/D96F/F97D/ins97aE/T98S/F99L/C122S/G151H/Q175L/Q192A (enzyme) VVGGTDADEGEWPWQVSLHALGHGHSCGASLISPNWLVSAAHCYIDTRGSRWSDPTQWTAFLGLHDQSQRSAPGVQERRLKRIISHPFFNFDESLDYDIALLELEKPAEYSSMVRPISLPDASHVFPAGKAIWVTGWGHTQYGGTHALILQKGEIRVINQTTCENLLPQLITPRMMCVGFLSGGVDSCAGDSGGPLSSVEADGRIFQAGVVSWGDGCAQRNKPGVYTRLPLFRDWIKENTGV",
    "Observed": 1.17
  },
  {
    "Binder": "Q38H/I41S/D60bY/D96Y/ins97aV/F97D/T98P/F99L/L106M/C122S/I136M/Q192G/Q209L/D217T (enzyme) VVGGTDADEGEWPWQVSLHALGHGHSCGASLISPNWLVSAAHCYIDYRGFRYSDPTQWTAFLGLHDQSQRSAPGVQERRLKRIISHPFFNYDVPLDYDIALMELEKPAEYSSMVRPISLPDASHVFPAGKAMWVTGWGHTQYGGTGALILQKGEIRVINQTTCENLLPQQITPRMMCVGFLSGGVDSCGGDSGGPLSSVEADGRIFLAGVVSWGTGCAQRNKPGVYTRLPLFRDWIKENTGV",
    "Observed": 1.97
  },
  {
    "Binder": "Q38Y/I41S/D60bT/F60eR/Y60gW/D96M/T98G/F99L/C122S/G151N/Q175L/Q192D (enzyme) VVGGTDADEGEWPWQVSLHALGYGHSCGASLISPNWLVSAAHCYIDTRGRRWSDPTQWTAFLGLHDQSQRSAPGVQERRLKRIISHPFFNMFGLDYDIALLELEKPAEYSSMVRPISLPDASHVFPAGKAIWVTGWGHTQYGGTNALILQKGEIRVINQTTCENLLPQLITPRMMCVGFLSGGVDSCDGDSGGPLSSVEADGRIFQAGVVSWGDGCAQRNKPGVYTRLPLFRDWIKENTGV",
    "Observed": 3.27
  }
]

# return recorded EC50 (nM), cleavage of purified hC3 in vitro for input Q38H/I41A/D60bV/F60eI/Y60gW/F97T/ins97aE/T98G/F99L/C122S/G151N/Q175L/Q192D (enzyme) VVGGTDADEGEWPWQVSLHALGHGHACGASLISPNWLVSAAHCYIDVRGIRWSDPTQWTAFLGLHDQSQRSAPGVQERRLKRIISHPFFNDTEGLDYDIALLELEKPAEYSSMVRPISLPDASHVFPAGKAIWVTGWGHTQYGGTNALILQKGEIRVINQTTCENLLPQLITPRMMCVGFLSGGVDSCDGDSGGPLSSVEADGRIFQAGVVSWGDGCAQRNKPGVYTRLPLFRDWIKENTGV
2.91

Hello, the source for this data is patent US20240018502A1, in case you need it.
